Reference source for all entries: ChEMBL document CHEMBL3044673

Tested on: Plutella xylostella
ASSAY_INFO: Insecticidal activity against Plutella xylostella (diamondback moth) grown on compound pre-treated fresh cabbage leaves assessed as insect mortality at 25 mg/kg measured 3 days post compound treatment by leaf-dip method
Assay type: functional
TEST_PARAMETERS: Plutella xylostella
PROPERTY_LABEL: mortality at 25 mg/kg

{"columns": ["COMPOUND", "mortality at 25 mg/kg"],
 "data": [
  ["CCCOC(Nc1c(SC)c(C#N)nn1-c1c(Cl)cc(C(F)(F)F)cc1Cl)C(Cl)(Cl)Cl (stereo not drawn)", "17%"],
  ["CC[S+]([O-])c1c(C#N)nn(-c2c(Cl)cc(C(F)(F)F)cc2Cl)c1N (stereo not drawn)", "69%"],
  ["CC[S+]([O-])c1c(C#N)nn(-c2c(Cl)cc(C(F)(F)F)cc2Cl)c1NC(OCCCl)C(Cl)(Cl)Cl (stereo not drawn)", "46%"]
]}

Report mortality at 25 mg/kg for every entry below.
1. CC[S+]([O-])c1c(C#N)nn(-c2c(Cl)cc(C(F)(F)F)cc2Cl)c1NC(OC)C(Cl)(Cl)Cl (stereo not drawn)
2. CCSc1c(C#N)nn(-c2c(Cl)cc(C(F)(F)F)cc2Cl)c1NC(OC)C(Cl)(Cl)Cl (stereo not drawn)
3. CSc1c(C#N)nn(-c2c(Cl)cc(C(F)(F)F)cc2Cl)c1NC(OCCF)C(Cl)(Cl)Cl (stereo not drawn)
4. C[S+]([O-])c1c(C#N)nn(-c2c(Cl)cc(C(F)(F)F)cc2Cl)c1NC(OCCF)C(Cl)(Cl)Cl (stereo in doubt; 7d-2)
5. COC(Nc1c(SC)c(C#N)nn1-c1c(Cl)cc(C(F)(F)F)cc1Cl)C(Cl)(Cl)Cl (stereo not drawn)

Solution:
1: 31%; 2: 34%; 3: 100%; 4: 89%; 5: 100%
